target desc: T1, human cholecystokinin-2 receptor (human, UniProt P32239 1-447)
T1 construct: whole, on cells; also called CCK-2R; CCK-2 receptor
T1 sequence (looked up): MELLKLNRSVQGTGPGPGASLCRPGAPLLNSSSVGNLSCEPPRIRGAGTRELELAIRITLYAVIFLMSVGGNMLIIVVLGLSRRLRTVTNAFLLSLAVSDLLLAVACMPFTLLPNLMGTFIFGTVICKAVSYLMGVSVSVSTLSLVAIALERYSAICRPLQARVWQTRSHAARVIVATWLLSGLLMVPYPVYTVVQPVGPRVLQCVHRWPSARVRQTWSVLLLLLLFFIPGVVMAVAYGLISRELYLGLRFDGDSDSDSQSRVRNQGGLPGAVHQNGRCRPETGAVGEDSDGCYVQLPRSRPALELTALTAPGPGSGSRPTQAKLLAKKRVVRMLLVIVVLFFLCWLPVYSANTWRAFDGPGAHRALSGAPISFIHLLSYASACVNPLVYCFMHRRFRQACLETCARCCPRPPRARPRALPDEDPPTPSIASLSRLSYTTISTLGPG
experiment: SPA competition vs [125I]-CCK-8s, membranes
Starred links: 1 amine or outer side, 2 acyl side, 3 side chain; linkers in the order of their positions; H or OH if unused. Non-standard residues stand in square brackets, D forms with d. *: point of attachment. sY = N[C@@H](Cc1ccc(OS(=O)(=O)O)cc1)C(=O)O; C18 diacid = O=C(O)CCCCCCCCCCCCCCCCC(=O)*; γGlu = O=C(O)[C@H](CCC(=O)[*:2])N[*:1]; NMeF = CN[C@@H](Cc1ccccc1)C(=O)O; dNMeD = CN[C@H](CC(=O)O)C(=O)O; Nle = CCCC[C@H](N)C(=O)O; AEEA = NCCOCCOCC(=O)O
Each entry below lists one item and its recorded pIC50 value.
On this scale, pIC50 is minus log10 of a concentration expressed in M (mol/L).

{C18 diacid-γGlu-AEEA-AEEA}-E[sY]LGW[Nle][dNMeD]F-NH2 (SMILES CCCC[C@H](NC(=O)[C@H](Cc1c[nH]c2ccccc12)NC(=O)CNC(=O)[C@H](CC(C)C)NC(=O)[C@H](Cc1ccc(OS(=O)(=O)O)cc1)NC(=O)[C@H](CCC(=O)O)NC(=O)COCCOCCNC(=O)COCCOCCNC(=O)CC[C@H](NC(=O)CCCCCCCCCCCCCCCCC(=O)O)C(=O)O)C(=O)N(C)[C@H](CC(=O)O)C(=O)N[C@@H](Cc1ccccc1)C(N)=O, X = Nle or Nal) :: 6.32

**Q:** Indicate its recorded pIC50; the binder in question is {C18 diacid-γGlu-AEEA-AEEA}-D[sY]AGW[Nle][dNMeD][NMeF]-NH2 (SMILES CCCC[C@H](NC(=O)[C@H](Cc1c[nH]c2ccccc12)NC(=O)CNC(=O)[C@H](C)NC(=O)[C@H](Cc1ccc(OS(=O)(=O)O)cc1)NC(=O)[C@H](CC(=O)O)NC(=O)COCCOCCNC(=O)COCCOCCNC(=O)CC[C@H](NC(=O)CCCCCCCCCCCCCCCCC(=O)O)C(=O)O)C(=O)N(C)[C@H](CC(=O)O)C(=O)N(C)[C@@H](Cc1ccccc1)C(N)=O, X = Nle or Nal)
**A:** 6.55
